target: Mycobacterium tuberculosis mycothione reductase (MtrMtb) (Mycobacterium tuberculosis); experiment: MtrMtb luminescence-coupled enzymatic assay, confirmation screen (11-point dose-response); format: biochemical; conditions: morpholine series; average IC50 in the confirmation screen (dose-response); unit not in this head, µM; read-out: qIC50 (MtrMtb)
Sequence (P9WHH3 whole entry, the tested form may be a part): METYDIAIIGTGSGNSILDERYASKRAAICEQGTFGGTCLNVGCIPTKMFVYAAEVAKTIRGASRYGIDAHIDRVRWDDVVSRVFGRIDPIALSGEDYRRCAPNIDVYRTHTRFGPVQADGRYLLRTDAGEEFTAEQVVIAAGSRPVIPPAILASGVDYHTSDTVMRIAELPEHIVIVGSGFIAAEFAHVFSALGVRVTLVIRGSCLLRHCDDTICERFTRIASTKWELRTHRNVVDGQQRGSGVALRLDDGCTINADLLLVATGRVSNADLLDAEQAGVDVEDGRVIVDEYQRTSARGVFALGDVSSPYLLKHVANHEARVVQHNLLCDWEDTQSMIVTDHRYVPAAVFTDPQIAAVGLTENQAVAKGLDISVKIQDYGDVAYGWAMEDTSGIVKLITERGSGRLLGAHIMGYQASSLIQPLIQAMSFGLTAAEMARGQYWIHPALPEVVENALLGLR
metric name: IC50 (µM)

INSERT INTO results (molecule, metric_name, assay_value) VALUES
  ('C[C@H]1COCCN1c1nc2c(c(-c3ccc(Cl)cc3)n1)CCNCC2 [Respiri-1078]', 'IC50', 4.47),
  ('C[C@H]1COCCN1c1nc2c(c(-c3csc4ccccc34)n1)CCNCC2 [Respiri-1093]', 'IC50', 6.22),
  ('C[C@H]1COCCN1c1nc2c(c(-c3ccnc4ccccc34)n1)CCNCC2 [Respiri-1083]', 'IC50', 2.34),
  ('C[C@H]1COCCN1c1nc2c(c(-c3ccc4ncccc4c3)n1)CCNCC2 [Respiri-1081]', 'IC50', 3.75),
  ('C[C@H]1COCCN1c1cc(-c2cc3ccccc3s2)c2c(n1)CCNCC2 [Respiri-1084]', 'IC50', 2.88),
  ('C[C@H]1COCCN1c1nc2c(c(-c3ccc4ccccc4c3)n1)CCNCC2 [Respiri-1082]', 'IC50', 3.03),
  ('C[C@H]1COCCN1c1nc2c(c(-c3ccc4c(c3)OCO4)n1)CCNCC2 [Respiri-1080]', 'IC50', 5.98),
  ('C[C@H]1COCCN1c1nc2c(c(-c3cc4ccccc4o3)n1)CCNCC2 [Respiri-1079]', 'IC50', 1.99);

###

test system: Mtb H37Ra^lux; assay: microbe, parasite or virus in culture; assay type: cell-based, Mycobacterium tuberculosis; settings: Mycobacterium tuberculosis, H37RA, read-out: MIC50 (Mtb H37Ra^lux)
metric name: MIC50 (µM)

INSERT INTO assay_data (chemical_string, target_entity, metric_name, units_of_measure, cmp, assay_value) VALUES
  ('C[C@H]1COCCN1c1nc2c(c(-c3ccc4ncccc4c3)n1)CCNCC2', 'Mtb H37Ra^lux', 'MIC50', 'µM', '>', 25),
  ('C[C@H]1COCCN1c1nc2c(c(-c3ccc4ccccc4c3)n1)CCNCC2', 'Mtb H37Ra^lux', 'MIC50', 'µM', '=', 4.02),
  ('C[C@H]1COCCN1c1nc2c(c(-c3ccnc4ccccc34)n1)CCNCC2', 'Mtb H37Ra^lux', 'MIC50', 'µM', '>', 25),
  ('C[C@H]1COCCN1c1cc(-c2cc3ccccc3s2)c2c(n1)CCNCC2', 'Mtb H37Ra^lux', 'MIC50', 'µM', '>', 25),
  ('C[C@H]1COCCN1c1nc2c(c(-c3ccc4c(c3)OCO4)n1)CCNCC2', 'Mtb H37Ra^lux', 'MIC50', 'µM', '>', 25),
  ('C[C@H]1COCCN1c1nc2c(c(-c3cc4ccccc4o3)n1)CCNCC2', 'Mtb H37Ra^lux', 'MIC50', 'µM', '=', 5.7),
  ('C[C@H]1COCCN1c1nc2c(c(-c3csc4ccccc34)n1)CCNCC2', 'Mtb H37Ra^lux', 'MIC50', 'µM', '=', 9.94),
  ('C[C@H]1COCCN1c1nc2c(c(-c3ccc(Cl)cc3)n1)CCNCC2', 'Mtb H37Ra^lux', 'MIC50', 'µM', '=', 11.9),
  ('C[C@H]1COCCN1c1nc2c(c(-c3ccc(F)cc3)n1)CCNCC2', 'Mtb H37Ra^lux', 'MIC50', 'µM', '>', 25),
  ('COc1cccc(-c2nc(N3CCOC[C@@H]3C)nc3c2CCNCC3)c1', 'Mtb H37Ra^lux', 'MIC50', 'µM', '>', 25);

###

Catalogue of CC50 at 60 h values
assay: RAW264.7 cytotoxicity (CellTiter-Glo); assay type: cell-based, murine; conditions: mouse, RAW264.7 macrophage-like cells, morpholine series, acute cellular toxicity, unit not in this head
metric name: CC50 at 60 h

INSERT INTO measurements (compound, assay_value) VALUES
  ('C[C@H]1COCCN1c1nc2c(c(-c3ccc(Cl)cc3)n1)CCNCC2 [Respiri-1078]', '13.7 µM'),
  ('C[C@H]1COCCN1c1nc2c(c(-c3ccnc4ccccc34)n1)CCNCC2 [Respiri-1083]', '> 25 µM'),
  ('C[C@H]1COCCN1c1nc2c(c(-c3csc4ccccc34)n1)CCNCC2 [Respiri-1093]', '> 25 µM'),
  ('C[C@H]1COCCN1c1nc2c(c(-c3cc4ccccc4o3)n1)CCNCC2 [Respiri-1079]', '11 µM'),
  ('C[C@H]1COCCN1c1cc(-c2cc3ccccc3s2)c2c(n1)CCNCC2 [Respiri-1084]', '11.9 µM'),
  ('C[C@H]1COCCN1c1nc2c(c(-c3ccc(F)cc3)n1)CCNCC2 [Respiri-1077]', '> 25 µM'),
  ('C[C@H]1COCCN1c1nc2c(c(-c3ccc4ccccc4c3)n1)CCNCC2 [Respiri-1082]', '9.69 µM'),
  ('C[C@H]1COCCN1c1nc2c(c(-c3ccc4ncccc4c3)n1)CCNCC2 [Respiri-1081]', '> 25 µM'),
  ('COc1cccc(-c2nc(N3CCOC[C@@H]3C)nc3c2CCNCC3)c1 [Respiri-1076]', '> 25 µM'),
  ('C[C@H]1COCCN1c1nc2c(c(-c3ccc4c(c3)OCO4)n1)CCNCC2 [Respiri-1080]', '> 5 µM');

###

Catalogue of IC50 values
target: Mycobacterium tuberculosis mycothione reductase (MtrMtb) (Mycobacterium tuberculosis); experiment: MtrMtb luminescence-coupled enzymatic assay, confirmation screen (11-point dose-response); type: biochemical; conditions: sulfonylamine series, fragment molecules, reference compounds; read-out: IC50 (µM) MtrMtb
metric name: IC50 (µM)

INSERT INTO measurements (chemical_string, assay_value) VALUES
  ('CCCCNc1cc(Oc2ccc(NS(=O)(=O)c3ccc(C)cc3)c(C(=O)O)c2)ccc1NS(=O)(=O)c1ccc(C)cc1', 1.66),
  ('O=C1C=CC(=O)N1Cc1ccc2c(c1)OCO2', 4.83),
  ('CCCNc1cc(Oc2ccc(NS(=O)(=O)c3ccc(C)cc3)c(C(=O)O)c2)ccc1NS(=O)(=O)c1ccc(C)cc1', 1.13),
  ('CCN(CC)c1cc(Oc2ccc(NS(=O)(=O)c3ccc(C)cc3)c(C(=O)O)c2)ccc1NS(=O)(=O)c1ccc(C)cc1', 2.38);

###

Catalogue of CC50 at 60 h values
experiment: RAW264.7 cytotoxicity (CellTiter-Glo); format: cell-based, murine; conditions: mouse, RAW264.7 macrophage-like cells, sulfonylamine series, fragment molecules, reference compounds
metric name: CC50 at 60 h

INSERT INTO results (chemical_string, assay_value) VALUES
  ('Cn1ccnc1C(=O)c1nccn1C', '> 50 µM'),
  ('O=C1C=CC(=O)N1Cc1ccc2c(c1)OCO2', '15.2 µM'),
  ('CCCCNc1cc(Oc2ccc(NS(=O)(=O)c3ccc(C)cc3)c(C(=O)O)c2)ccc1NS(=O)(=O)c1ccc(C)cc1', '> 50 µM'),
  ('CCN(CC)c1cc(Oc2ccc(NS(=O)(=O)c3ccc(C)cc3)c(C(=O)O)c2)ccc1NS(=O)(=O)c1ccc(C)cc1', '> 50 µM');

###

assay: RAW264.7 cytotoxicity (CellTiter-Glo); assay type: cell-based, murine; conditions: mouse, RAW264.7 macrophage-like cells, sulfonylamine series, fragment molecules, reference compounds
metric name: CC50 at 60 h

INSERT INTO assay_data (molecule, assay_value) VALUES
  ('CN1C(=O)C2N=CNC2N(C)C1=O (centres unmarked)', '> 50 µM'),
  ('CC/C(=C(\c1ccccc1)c1ccc(OCCN(C)C)cc1)c1ccccc1 [Tamoxifen, reference compound]', '4.54 µM'),
  ('CCCNc1cc(Oc2ccc(NS(=O)(=O)c3ccc(C)cc3)c(C(=O)O)c2)ccc1NS(=O)(=O)c1ccc(C)cc1', '> 50 µM'),
  ('Cc1ccn(-c2ncccn2)c(=O)c1C#N', '> 50 µM'),
  ('COc1nc2ccc(Br)cc2cc1[C@@H](c1ccccc1)[C@@](O)(CCN(C)C)c1cccc2ccccc12 [Bedaquiline, reference compound]', '> 50 µM');
